Each recorded value in this set is attributed to PubChem BioAssay (NCI).

Test system: CAKI-1 renal
Experiment Summary: NCI tumour cell line growth inhibition, 48 h
Experimental Readout: TGI

Observe how each entry below is paired with its result.
CC(C)(C)[Si](C)(C)OCC1OC(n2cnc3c(N)ncnc32)CC1OS(C)(=O)=O (stereo not given); > 100 µM
CC(/C=N\NC(=S)N(C)C)=N/NC(=S)N(C)C; > 56.2 µM
Nc1cc(-c2ccc(Cl)cc2)nn1-c1nc2ccccc2nc1-c1ccccc1; > 100 µM

Exam item: For the compound COc1ccc(Cl)cc1NC(=O)c1cccc([N+](=O)[O-])c1O , give its measured TGI value.
Marked response: > 64.8 µM

Exam item: For the compound COc1ccc(N2C(=O)[C@@H]3[C@H](C2=O)c2[nH]c4ccccc4c2C2CCC(C(C)(C)C)C[C@@H]23)cc1 (stereo not given in full) , give its measured TGI value.
Marked response: > 68.9 µM

Exam item: For the compound CCc1cccc(C(C)CC)c1NC(=O)C(=O)C(CC(=O)Nc1ccc(Cl)c(Cl)c1)C(=O)OC (stereo not given) , give its measured TGI value.
Marked response: > 100 µM

Exam item: For the compound COc1ccc(C(=O)COc2cccc(/C=C3\CSc4ccc(Cl)cc4C3=O)c2)cc1 , give its measured TGI value.
Marked response: 25.1 µM

Exam item: For the compound O=C(Cn1c2ccc(Br)cc2c2nc3ccccc3nc21)N/N=C/c1ccccc1 , give its measured TGI value.
Marked response: > 100 µM

----------
Tested on: HCT-15 colon
Experiment Summary: NCI tumour cell line growth inhibition, 48 h
Each record here notes measured TGI.

CCNc1nc2c(ncn2C2CC(O)C(COP(=O)(O)O)O2)c(=O)[nH]1 (centres undefined); > 100 µM

Exam item: For the compound O=C1c2ccccc2C(C2c3ccccc3C(=O)c3cc(Br)ccc32)c2ccc(Br)cc21 (centres undefined) , give its measured TGI value.
Marked response: > 100 µM

Exam item: For the compound COc1cc2c([C@@H](OC(=O)c3ccccc3)c3ccc4c(c3)OCO4)nccc2c(OC)c1OC , give its measured TGI value.
Marked response: > 100 µM

Exam item: For the compound O[C@H]1[C@H]2[C@H](O)C[C@H](CCOCc3ccccc3)CN2C[C@H]1O , give its measured TGI value.
Marked response: > 100 µM

Exam item: For the compound COc1ccc(C(=O)N(C(=O)N2CCN(c3ccccc3)CC2)S(=O)(=O)c2ccccc2)cc1 , give its measured TGI value.
Marked response: > 100 µM

Exam item: For the compound CCCCCCCCCCCCCCCC(=O)OC(COC(C)=O)CO[P+](=O)O (centres undefined) , give its measured TGI value.
Marked response: 43.8 µM

Exam item: For the compound CN(/N=C\c1ccc2ccccc2c1)C1=NCCN1 , give its measured TGI value.
Marked response: > 100 µM

Exam item: For the compound CCc1cccc(CC)c1NC(=O)C1=C(C)NC(C)=C(C(=O)Nc2c(CC)cccc2CC)C1c1ccc2c(c1)OCO2 , give its measured TGI value.
Marked response: 26.8 µM

----------
Test system: MALME-3M melanoma
Experiment Summary: NCI tumour cell line growth inhibition, 48 h
Experimental Readout: TGI

Exam item: For the compound CC(C)C1OC(=O)/C=C/C=C/C=C/C=C/C=C/CC(O)C(C)C(O)CC(O)CC(O)CC(O)CC(O)CC(O)CC(O)/C=C/C1C (stereo not drawn) , give its measured TGI value.
Marked response: > 100 µM

----------
Tested on: MCF7 breast
Experiment Summary: NCI tumour cell line growth inhibition, 48 h; in the data active = GI50 below about 0.43 µM; inactive = the rest
// classify into active, inactive

Answered cases to consult:
O=S(=O)(NCCNc1cc(-c2cn(-c3ccccc3)nc2-c2cccc(O)c2)ccn1)c1ccc(Cl)cc1; inactive
C1=C(c2ccccc2)C(c2ccc(OCCN3CCCCC3)cc2)Oc2ccccc21 (centres undefined); inactive
CCN(CC)CCOc1ccc2c(c1)C(=O)c1cc(OCCN(CC)CC)ccc1-2; inactive
C[C@@H](Oc1ccc2[nH]nc(/C=C/c3cnn(CCO)c3)c2c1)c1c(Cl)cncc1Cl; active
O=C1c2ccn(CCCCN3CCCCC3)c2C(=O)c2c1c(O)c1ccccc1c2O; inactive

Exam item: Test call, this compound: CO[C@@]12C[C@H]3[C@@H]([C@@H](O)[C@@H](OC(=O)/C=C/c4ccccc4)[C@@]4(O)C(C)(C)CCC[C@]34C)[C@@H](C)C1=CC(=O)O2
Marked response: inactive

----------
Tested on: ACHN renal
Experiment Summary: NCI tumour cell line growth inhibition, 48 h; in the data active = GI50 below about 0.43 µM; inactive = the rest
// classify into active, inactive

Answered cases to consult:
Cc1nc2cc(Nc3nc(Nc4ccc(F)cc4)nc(N4CCN(C)CC4)n3)ccc2n1Cc1ccccc1; inactive
COc1ccc(CC(NC(=O)[C@H](C)NC(=O)CN2CCOCC2)C(=O)N[C@@H](Cc2ccccc2)C(=O)[C@@]2(C)CO2)cc1 (some centres not stated); inactive
c1cc[c]([Sn]([S]c2cccc3cccnc23)([S]c2cccc3cccnc23)[c]2ccccc2)cc1; active
COC(=O)OCc1ccc2c(c1)C(=O)c1c-2n(CCCBr)c(=O)c2cc([N+](=O)[O-])ccc12; inactive

Exam item: Test call, this compound: O=C(O)c1cc(Cc2ccc(O)c(C(=O)O)c2)ccc1O (tested in a mixture with another compound)
Marked response: inactive

Exam item: Test call, this compound: CNC(=O)OC1C(O[C@H]2C[C@H]3[C@@H]4CC=C5C[C@@H](O)CC[C@]5(C)[C@H]4CC[C@]3(C)[C@H]2[C@H](C)C(=O)CCC(C)C)OCC(O)C1OC1OCC(O)C(O)C1OC(=O)c1ccc(OC)cc1 (some centres not stated)
Marked response: active

Exam item: Test call, this compound: NC(=S)N/N=C\c1nccc2c(N)cccc12
Marked response: active

----------
Test system: T-47D breast
Experiment Summary: NCI tumour cell line growth inhibition, 48 h; in the data active = GI50 below about 0.43 µM; inactive = the rest
// classify into yes = active, no = inactive

C[C@@H](Oc1ccc2[nH]nc(/C=C/c3cnn(CCO)c3)c2c1)c1c(Cl)cncc1Cl; no

Exam item: Test call, this compound: COc1ccc(CC(NC(=O)[C@H](C)NC(=O)CN2CCOCC2)C(=O)N[C@@H](Cc2ccccc2)C(=O)[C@@]2(C)CO2)cc1 (stereo partly drawn)
Marked response: yes

Exam item: Test call, this compound: NC(=S)N/N=C\c1nccc2c(N)cccc12
Marked response: no

Exam item: Test call, this compound: CC(C)(C)OC(=O)CN1CCc2c(sc3ncnc(N/N=C/c4cccc5ccccc45)c23)C1
Marked response: no

Exam item: Test call, this compound: C[C@]12C3CC[C@@]4(CO)C[C@]3(CCC1[C@](C)(C(=O)O)CC[C@@H]2O)CC4=O (stereo partly drawn)
Marked response: no

Exam item: Test call, this compound: COc1ccc2c(c1)cn1c3ccc(O)cc3[nH]c(=O)c21
Marked response: no

Exam item: Test call, this compound: OCC#Cc1ccccc1C#Cc1ccc(C#Cc2ccccc2C#CCO)s1
Marked response: no

Exam item: Test call, this compound: O=C(Nc1cccc(O)c1)c1cccc(NC2=C(Cl)C(=O)N(Cc3ccccc3)C2=O)c1
Marked response: no

----------
Test system: NCI-H522 lung
Experiment Summary: NCI tumour cell line growth inhibition, 48 h
Experimental Readout: log10 TGI (log10 of the value in µM)
Friendly reminder: values = log10 of TGI, unit µM.

Observe how each entry below is paired with its result.
Cc1cc(=O)oc2c3c(ccc12)OC(c1ccc(Br)cc1)CC3=O (stereo unspecified); 1.26
CCCCCCCCCCCCCCCC(=O)OC(COC(C)=O)CO[P+](=O)O (stereo unspecified); 1.56
Cn1c2ccccc2n2c3ccccc3c(=O)c(C#N)c12; 1.76
CC(O)C(O)C(O)C(/C=N\Nc1ccccc1)=N/Nc1ccccc1 (stereo unspecified); 1.32
CCCCCC(O)(CCCCC)CCCCCCCCC1=C(O)c2[nH]c(=O)ccc2C(=O)C1=O; 1.32

Exam item: For the molecule COc1ccc(/C=C(/C)[N+](=O)[O-])cc1 , give its measured log10 TGI value.
Marked response: 0.26

Exam item: For the molecule Cn1c2ccccc2c(=O)c2c([N+](=O)[O-])ccc(NCCN)c21 , give its measured log10 TGI value.
Marked response: 1.31

Exam item: For the molecule COC1CC(CC2CCC(C)C(C(C)C(=O)O)O2)OC2(OC(C)(C3CCC(C)(C4OC(C5OC(O)(CO)C(C)CC5C)CC4C)O3)CC2C)C1C (stereo unspecified) , give its measured log10 TGI value.
Marked response: -0.23

Exam item: For the molecule O=C(Nc1cccc(O)c1)c1cccc(NC2=C(Cl)C(=O)N(Cc3ccccc3)C2=O)c1 , give its measured log10 TGI value.
Marked response: 1.24

Exam item: For the molecule NC(=S)N/N=C\c1nccc2c(N)cccc12 , give its measured log10 TGI value.
Marked response: -0.29

----------
Test system: ACHN renal
Experiment Summary: NCI tumour cell line growth inhibition, 48 h
Each record here notes measured TGI.

COC(=O)C1ON2C(C1C(=O)OC)C(C)(C)N(O)C2(C)C (stereo not given); > 10 µM
O=C(O)Cn1c(=O)[nH]c(=O)c2[nH]cnc21; > 100 µM
O=c1[nH]c(Nc2ccc(Cl)cc2)nc2nc[nH]c12; > 100 µM
Cc1nc(Nc2ccccc2)sc1C(=O)NNc1ccc([N+](=O)[O-])cc1[N+](=O)[O-]; > 100 µM
CC(O)(CNS(=O)(=O)c1ccccc1)c1ccccc1 (stereo not given); > 100 µM
C1=CC(=[N+]2N=C(c3ccccc3)CC2c2ccccc2)C=CC1=C1SC(c2ccccc2)(c2ccccc2)c2ccccc21 (stereo not given); > 100 µM
COC(=O)C1N=CSCC1(C)O (stereo not given); > 100 µM
COC(=O)OCc1ccc2c(c1)C(=O)c1c-2n(CCCBr)c(=O)c2cc([N+](=O)[O-])ccc12; 93.8 µM

Exam item: Provide TGI, recorded with ACHN renal, of COc1ccc(/C=C(/C)[N+](=O)[O-])cc1
Marked response: 3.97 µM
